As shown below, each of these compounds has a reported Pancreas uptake value.
System: mice bearing PSMA-expressing LNCAP cancer xenografts
Assay: Biodistribution of 68Ga-labeled compounds
Format: in vivo
Conditions: 1 h post-injection
measured-parameter: Pancreas uptake (% ID/g)

[[record]]
compound = "O=C([O-])CN1CCN(CC(=O)[O-])CCN(CC(=O)NCC2CCC(C(=O)NC(Cc3ccc4cc5ccccc5cc4c3)C(=O)NCCCCC(NC(=O)NC(CCC(=O)O)C(=O)O)C(=O)O)CC2)CCN(CC(=O)[O-])CC1.[68Ga+3] (stereo not shown) [^68Ga-HTK03027]"
measured_result = 0.57

[[record]]
compound = "COc1ccc(CCCC(=O)NCC(=O)N[C@@H](CCCCNC(=O)CN2CCN(CC(=O)[O-])CCN(CC(=O)[O-])CCN(CC(=O)[O-])CC2)C(=O)NC[C@H]2CC[C@H](C(=O)N[C@@H](Cc3ccc4ccccc4c3)C(=O)NCCCC[C@H](NC(=O)N[C@@H](CCC(=O)O)C(=O)O)C(=O)O)CC2)cc1.[68Ga+3] [^68Ga-HTK03086]"
measured_result = 1.16

[[record]]
compound = "O=C([O-])CN1CCN(CC(=O)[O-])CCN(CC(=O)NCCCC[C@H](NC(=O)CNC(=O)CCCc2ccc(Br)cc2)C(=O)NC[C@H]2CC[C@H](C(=O)N[C@@H](Cc3ccc4ccccc4c3)C(=O)NCCCC[C@H](NC(=O)N[C@@H](CCC(=O)O)C(=O)O)C(=O)O)CC2)CCN(CC(=O)[O-])CC1.[68Ga+3] [^68Ga-HTK03058]"
measured_result = 2.00

[[record]]
compound = "O=C([O-])CN1CCN(CC(=O)[O-])CCN(CC(=O)NCCCC[C@H](NC(=O)CNC(=O)CCCc2ccccc2)C(=O)NC[C@H]2CC[C@H](C(=O)N[C@@H](Cc3ccc4ccccc4c3)C(=O)NCCCC[C@H](NC(=O)N[C@@H](CCC(=O)O)C(=O)O)C(=O)O)CC2)CCN(CC(=O)[O-])CC1.[68Ga+3] [^68Ga-HTK03056]"
measured_result = 0.85

